subjectOfTest: hNaV1.7 (Homo sapiens)
Construct: expressed in transfected cells
experiment: Patch voltage clamp electrophysiology (EP), Syncropatch 384PE, Nav1.7 in CHO cells
Type: cell-based
testSettings: holding potential −50 mV, inhibition based on 7.5 min compound incubation, read-out: hNaV1.7 EP_SP
pIC50: −log10 of the molar value.
Decision: pIC50 >= 7 yields Y, all other cases yield N.

Consider the worked cases shown below.
1. CN(C)[C@H]1CCCC[C@@H]1Nc1ccc(S(=O)(=O)Nc2nccs2)c(F)c1 [Example 332]; N
2. O=C(NS(=O)(=O)N1CC[C@@H]2CN[C@@H]2C1)c1cc(Cl)c(OCC2CCCC2)cc1F [Example 231, 2,2,2-trifluoroacetate]; N

Req: Check this molecule for pIC50 at or above 7: O=C(N[C@@H](C(=O)O)C1CCCCC1)c1cc(Cl)c(OCC2CCCC2)cc1F [Example 107]
Resp: N

Req: Check this molecule for pIC50 at or above 7: COc1ccccc1S(=O)(=O)NC(=O)c1cc(Cl)c(OCC2CCCC2)cc1F [Example 246]
Resp: N

Req: Check this molecule for pIC50 at or above 7: C[C@@H]1CCCN1S(=O)(=O)NC(=O)c1cc(Cl)c(OCC2CCCC2)cc1F (single isomer, unassigned) [Example 222]
Resp: Y

Req: Check this molecule for pIC50 at or above 7: O=C(NS(=O)(=O)N1CCC(OC2CCNC2)CC1)c1cc(C2CC2)c(OCC2CCCC2)cc1F (stereo in doubt) [Example 30, 2,2,2-trifluoroacetate]
Resp: Y

Req: Check this molecule for pIC50 at or above 7: CN(C)[C@H]1CCCC[C@@H]1Oc1ccc(S(=O)(=O)NC(=O)c2cc(C3CC3)c(OCC3CCCC3)cc2F)c(F)c1 [Example 65]
Resp: Y

Req: Check this molecule for pIC50 at or above 7: CN(C)[C@H]1CCCC[C@@H]1Nc1cc(F)c(S(=O)(=O)Nc2nc3ccc(OCC4CCCC4)cc3s2)cc1Cl [Example 202]
Resp: Y

Req: Check this molecule for pIC50 at or above 7: COc1ccc(F)cc1-c1nccc2cc(S(=O)(=O)NC(=O)c3cc(Cl)c(OCC4CCCC4)cc3F)ccc12 [Example 72]
Resp: N

Req: Check this molecule for pIC50 at or above 7: Cc1cccc(COc2ccc(S(=O)(=O)NC(=O)c3cc(Cl)c(OCC4CCCC4)cc3F)cc2)c1 [Example 260]
Resp: N

Req: Check this molecule for pIC50 at or above 7: CC(C)(C)OC(=O)C1CC2C(C1)C2NS(=O)(=O)NC(=O)c1cc(Cl)c(OCC2CCCC2)cc1F (stereo not shown) [Example 327]
Resp: N

Req: Check this molecule for pIC50 at or above 7: O=C(NS(=O)(=O)c1ccc2c(c1)NCC2)c1cc(Cl)c(OCC2CCCC2)cc1F [Example 282]
Resp: N

Req: Check this molecule for pIC50 at or above 7: COc1cccc(S(=O)(=O)NC(=O)c2cc(Cl)c(OCC3CCCC3)cc2F)c1 [Example 245]
Resp: N

Req: Check this molecule for pIC50 at or above 7: O=C(NS(=O)(=O)N1CCC(O[C@@H]2CCNC2)CC1)c1cc(Cl)c(OCC2CCCC2)cc1F (single isomer, unassigned) [Example 36, 2,2,2-trifluoroacetate]
Resp: N

Req: Check this molecule for pIC50 at or above 7: CN(C)[C@H]1CCCC[C@@H]1Nc1cc(F)c(S(=O)(=O)Nc2ccc(OCCC3(C(F)(F)F)CC3)cn2)cc1Cl [Example 101]
Resp: N

Req: Check this molecule for pIC50 at or above 7: CCc1cccc(S(=O)(=O)NC(=O)c2cc(Cl)c(OCC3CCCC3)cc2F)c1 [Example 244]
Resp: N

Req: Check this molecule for pIC50 at or above 7: CN1CC(OC2CCN(S(=O)(=O)NC(=O)c3cc(C4CC4)c(OCc4ccccc4)cc3F)CC2)C1 [Example 236]
Resp: Y

* * *

subjectOfTest: hNaV1.7 (Homo sapiens, UniProt Q15858)
Construct: expressed in transfected cells
Sequence (Q15858 1-1977 isoform Q15858-3): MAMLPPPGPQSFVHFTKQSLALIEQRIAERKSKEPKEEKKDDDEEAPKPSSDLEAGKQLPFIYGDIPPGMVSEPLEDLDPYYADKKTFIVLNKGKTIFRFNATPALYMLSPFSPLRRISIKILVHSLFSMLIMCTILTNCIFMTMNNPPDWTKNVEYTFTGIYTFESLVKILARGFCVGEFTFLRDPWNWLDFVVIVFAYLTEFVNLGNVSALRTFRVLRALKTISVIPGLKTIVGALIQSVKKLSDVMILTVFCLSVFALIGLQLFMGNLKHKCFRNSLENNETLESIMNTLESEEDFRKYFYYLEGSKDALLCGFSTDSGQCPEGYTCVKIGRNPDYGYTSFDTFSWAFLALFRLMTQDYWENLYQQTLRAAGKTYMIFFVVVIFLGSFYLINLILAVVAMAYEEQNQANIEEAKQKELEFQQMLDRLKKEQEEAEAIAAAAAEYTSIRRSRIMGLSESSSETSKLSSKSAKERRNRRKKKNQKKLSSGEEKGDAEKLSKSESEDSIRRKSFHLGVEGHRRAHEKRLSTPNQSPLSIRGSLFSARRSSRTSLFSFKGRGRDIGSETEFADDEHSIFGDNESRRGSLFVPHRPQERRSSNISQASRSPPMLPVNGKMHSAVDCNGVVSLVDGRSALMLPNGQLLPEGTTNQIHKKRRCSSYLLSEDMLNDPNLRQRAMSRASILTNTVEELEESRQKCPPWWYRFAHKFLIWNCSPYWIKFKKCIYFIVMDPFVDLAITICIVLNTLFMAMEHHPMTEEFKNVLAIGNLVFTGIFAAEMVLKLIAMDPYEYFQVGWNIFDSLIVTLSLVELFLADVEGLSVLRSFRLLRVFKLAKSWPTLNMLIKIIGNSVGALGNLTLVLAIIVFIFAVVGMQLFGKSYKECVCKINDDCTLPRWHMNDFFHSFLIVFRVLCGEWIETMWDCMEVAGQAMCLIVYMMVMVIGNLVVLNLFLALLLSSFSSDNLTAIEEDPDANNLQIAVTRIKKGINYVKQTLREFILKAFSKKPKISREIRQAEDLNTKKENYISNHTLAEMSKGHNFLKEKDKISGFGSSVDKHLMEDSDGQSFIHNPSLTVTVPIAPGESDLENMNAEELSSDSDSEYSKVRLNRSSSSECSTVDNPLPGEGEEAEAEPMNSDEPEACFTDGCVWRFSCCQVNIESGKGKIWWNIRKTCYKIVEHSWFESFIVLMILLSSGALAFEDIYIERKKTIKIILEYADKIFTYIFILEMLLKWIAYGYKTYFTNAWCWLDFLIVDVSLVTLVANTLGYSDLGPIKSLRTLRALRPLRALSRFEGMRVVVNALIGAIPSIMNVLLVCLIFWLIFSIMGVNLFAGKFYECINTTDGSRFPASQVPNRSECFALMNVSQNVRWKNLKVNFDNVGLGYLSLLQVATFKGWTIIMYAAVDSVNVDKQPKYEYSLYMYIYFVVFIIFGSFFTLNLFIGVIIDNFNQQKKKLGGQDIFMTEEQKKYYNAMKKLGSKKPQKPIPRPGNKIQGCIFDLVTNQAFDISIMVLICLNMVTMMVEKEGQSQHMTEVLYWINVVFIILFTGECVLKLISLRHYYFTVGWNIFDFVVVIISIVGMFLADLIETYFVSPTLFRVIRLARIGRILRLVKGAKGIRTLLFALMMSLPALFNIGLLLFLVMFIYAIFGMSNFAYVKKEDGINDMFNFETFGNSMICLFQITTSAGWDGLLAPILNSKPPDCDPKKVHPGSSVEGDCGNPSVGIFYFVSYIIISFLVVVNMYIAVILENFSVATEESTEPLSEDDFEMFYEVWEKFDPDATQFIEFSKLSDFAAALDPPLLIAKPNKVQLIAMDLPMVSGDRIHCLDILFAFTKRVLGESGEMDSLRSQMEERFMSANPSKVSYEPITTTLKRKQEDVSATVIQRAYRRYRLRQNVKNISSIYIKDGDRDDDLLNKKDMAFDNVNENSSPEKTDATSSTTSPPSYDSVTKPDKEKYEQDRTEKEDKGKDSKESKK
experiment: Patch voltage clamp electrophysiology (EP), Syncropatch 384PE, Nav1.7 in CHO cells
Assay type: cell-based
testSettings: holding potential −50 mV, inhibition based on 7.5 min compound incubation, read-out: hNaV1.7 EP_SP
Below is a list of entries, each paired with its recorded pIC50 value.
Scale explanation: pIC50 corresponds to minus log10 of a concentration expressed in moles per litre.

# count of solved cases: 5
1. COc1cc(C(=O)NS(=O)(=O)N2CCC(OC3CN(C)C3)CC2)c(F)cc1OCC1CCCC1; 6.49
2. O=C(NS(=O)(=O)Cc1cccc(F)c1F)c1cc(Cl)c(OCC2CCCC2)cc1F; 7.06
3. NC[C@@H]1CN(S(=O)(=O)NC(=O)c2cc(Cl)c(OCC3CCCC3)cc2F)CCO1 (single isomer, unassigned) [Example 24, 2,2,2-trifluoroacetate]; 7.00
4. O=C(NS(=O)(=O)N1CCC(OC2CCNCC2)CC1)c1cc(Cl)c(OCC2CCCC2)cc1F; 6.60
5. CN(C)C1CCCN(c2ccc(S(=O)(=O)NC(=O)c3cc(Cl)c(OCC4CCCC4)cc3F)c(F)c2)C1 (stereo not shown); 7.41

Req: Give its pIC50 value. Item: CN(C)C[C@@H]1CN(S(=O)(=O)NC(=O)c2cc(Cl)c(OCC3CCCC3)cc2F)CCO1 (single isomer, unassigned)
Resp: 6.64

Req: Give its pIC50 value. Item: O=C(NS(=O)(=O)c1ccc(OCc2ccc(F)cc2F)cc1)c1cc(Cl)c(OCC2CCCC2)cc1F
Resp: 6.60

* * *

subjectOfTest: hNaV1.7 (Homo sapiens)
Construct: expressed in transfected cells
experiment: Patch voltage clamp electrophysiology (EP), Syncropatch 384PE, Nav1.7 in CHO cells
Format: cell-based
testSettings: holding potential −50 mV, inhibition based on 7.5 min compound incubation, read-out: hNaV1.7 EP_SP
Where a name gives a salt, the structure may show the parent alone.
Below is a list of entries, each paired with its recorded pIC50 value.
Scale explanation: pIC50 corresponds to minus log10 of a concentration expressed in moles per litre.

1. O=C(NS(=O)(=O)CCOCc1ccccc1)c1cc(Cl)c(OCC2CCCC2)cc1F [Example 274]; 6.64
2. O=C(NS(=O)(=O)c1ccc(OCc2cc(F)cc(F)c2)cc1)c1cc(Cl)c(OCC2CCCC2)cc1F [Example 307]; 6.14
3. Cc1cc(C(=O)NS(=O)(=O)N2CCC(OC3CN(C)C3)CC2)c(F)cc1OCC1CCCC1 [Example 2]; 7.19
4. CN(C)C1CCCN(c2cc(F)c(S(=O)(=O)NC(=O)c3cc(Cl)c(OCC4CCCC4)cc3F)c(F)c2)C1 (centres unmarked) [Example 62, formate]; 7.77
5. NCCCOc1ccc(S(=O)(=O)NC(=O)c2cc(Cl)c(OCC3CCCC3)cc2F)cc1 [Example 314]; 6.51
6. COC[C@@H](C)S(=O)(=O)NC(=O)c1cc(Cl)c(OCC2CCCC2)cc1F (single isomer, unassigned) [Example 249]; 6.96
7. CCOc1ccc(S(=O)(=O)NC(=O)c2cc(Cl)c(OCC3CCCC3)cc2F)cn1 [Example 285]; 6.46
8. O=C(NS(=O)(=O)Cc1ccc2ncccc2c1)c1cc(Cl)c(OCC2CCCC2)cc1F [Example 273]; 6.64

Req: Give its pIC50 value. Item: N[C@H]1CCCCN(S(=O)(=O)NC(=O)c2cc(Cl)c(OCC3CCCC3)cc2F)C1 (single isomer, unassigned) [Example 219, 2,2,2-trifluoroacetate]
Resp: 6.19

Req: Give its pIC50 value. Item: COc1ccc(S(=O)(=O)NC(=O)c2cc(Cl)c(OCC3CCCC3)cc2F)cc1 [Example 81]
Resp: 6.85

Req: Give its pIC50 value. Item: CN(C)[C@H]1CCCC[C@@H]1Oc1ccc(S(=O)(=O)Nc2ccc(Oc3ccc(Cl)cc3)cn2)c(F)c1 [Example 258]
Resp: 6.08

* * *

subjectOfTest: hNaV1.7 (Homo sapiens, UniProt Q15858)
Construct: expressed in transfected cells
experiment: Patch voltage clamp electrophysiology (EP), Syncropatch 384PE, Nav1.7 in CHO cells;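 also: Nav1.7 stably expressed from cDNA in CHO cells, holding potential of −50 mV kept for the entire experiment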
Type: cell-based
testSettings: holding potential −50 mV, inhibition based on 7.5 min compound incubation, read-out: hNaV1.7 EP_SP
measure: IC50 (µM)
Enter your answer as a number in µM; do not include the unit.

1. CN1CC(OC2CCN(S(=O)(=O)NC(=O)c3cc(C4CC4)c(OCC(F)(F)F)cc3F)CC2)C1 [Example 238]; 0.084

Req: Give its IC50 value. Item: O=C(NS(=O)(=O)N1CC[C@H](OC2CCNCC2)C1)c1cc(Cl)c(OCC2CCCC2)cc1F (single isomer, unassigned) [Example 212]
Resp: 0.087

Req: Give its IC50 value. Item: O=C(NS(=O)(=O)c1ccc(OCC2CCNC2)cc1)c1cc(Cl)c(OCC2CCCC2)cc1F (stereo in doubt) [Example 302]
Resp: 0.12

Req: Give its IC50 value. Item: O=C(NS(=O)(=O)N1CCC(O[C@H]2CCNC2)CC1)c1cc(Cl)c(OCC2CCCC2)cc1F (single isomer, unassigned) [Example 37, 2,2,2-trifluoroacetate]
Resp: 0.077

Req: Give its IC50 value. Item: COc1ccccc1COc1ccc(S(=O)(=O)NC(=O)c2cc(Cl)c(OCC3CCCC3)cc2F)cc1 [Example 318]
Resp: 0.19

Req: Give its IC50 value. Item: CN(C)[C@H]1CCCC[C@@H]1Nc1ccc(S(=O)(=O)Nc2nc3ncc(Br)cc3s2)c(F)c1 [Example 95]
Resp: 0.17

Req: Give its IC50 value. Item: O=C(NS(=O)(=O)c1ccc(Oc2ccccc2)cc1)c1cc(Cl)c(OCC2CCCC2)cc1F [Example 263]
Resp: 0.22

Req: Give its IC50 value. Item: CN(C)[C@H]1CCCC[C@@H]1Oc1ccc(S(=O)(=O)Nc2noc3cc(OCC4CCCC4)c(C4CC4)cc23)c(F)c1 [Example 89]
Resp: 0.34
